MEASURED ON: T1, human IL-18BP (human, UniProt O95998 31-194)
T1 construct: UniProt printed as 095998; also called hIL-18BP
T1 sequence: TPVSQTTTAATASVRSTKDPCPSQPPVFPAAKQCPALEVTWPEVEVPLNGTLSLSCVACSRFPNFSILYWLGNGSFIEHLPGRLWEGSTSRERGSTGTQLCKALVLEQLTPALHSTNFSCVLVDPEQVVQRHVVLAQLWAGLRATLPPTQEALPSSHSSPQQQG
METHOD: BLI, apparent KD
RECORDED ENDPOINT: Kd (nM)
Answer with a number only, understood to be in nM.

Just so you know, measured Kd for SA301a HC-Y96P (antibody, name in Kabat numbering, V domains shown, IgG1 kappa) VH: QVQLQESGPGLVKPSQTLSLTCTVSGYSITSDYNSHWIRQPPGKGLEWIGYIHYSGSTNYNPSLKSRVTISRDTSKNQFSLKLSSVTAADTAVYYCARNPGSIYVNYFDYWGQGTLVTVSS VL: EIVLTQSPATLSLSPGERATLSCSASSSVSYMYWYQQKPGQAPRPLIYRTSNLASGIPARFSGSGSGTDFTLTISSLEPEDFAVYYCQQYHSYPTFGGGTKVEIK came out at 0.46

Just so you know, measured Kd for SA301a HC-Y96I (antibody, name in Kabat numbering, V domains shown, IgG1 kappa) VH: QVQLQESGPGLVKPSQTLSLTCTVSGYSITSDYNSHWIRQPPGKGLEWIGYIHYSGSTNYNPSLKSRVTISRDTSKNQFSLKLSSVTAADTAVYYCARNIGSIYVNYFDYWGQGTLVTVSS VL: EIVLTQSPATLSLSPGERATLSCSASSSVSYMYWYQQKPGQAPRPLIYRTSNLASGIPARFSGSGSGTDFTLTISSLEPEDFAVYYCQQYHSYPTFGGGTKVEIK came out at 4.02

Just so you know, measured Kd for SA301a HC-G97Q (antibody, name in Kabat numbering, V domains shown, IgG1 kappa) VH: QVQLQESGPGLVKPSQTLSLTCTVSGYSITSDYNSHWIRQPPGKGLEWIGYIHYSGSTNYNPSLKSRVTISRDTSKNQFSLKLSSVTAADTAVYYCARNYQSIYVNYFDYWGQGTLVTVSS VL: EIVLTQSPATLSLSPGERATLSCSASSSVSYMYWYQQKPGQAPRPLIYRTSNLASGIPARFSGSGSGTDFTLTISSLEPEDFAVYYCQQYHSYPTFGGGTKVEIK came out at 7.04
